Test: gradient 5% acetonitrile 3 min, to 50% in 2 min, to 85% in 15 min, held 3 min, 100 µL/min
Details: column: Zorbax Extend-C18 2.1 x 50 mm; eluents: water / acetonitrile, 0.1% formic acid
Decision: RP-LC retention time beneath 800 s gives yes; RP-LC retention time meeting or exceeding 800 s gives no.

| compound | class name |
| --- | --- |
| CCOc1ccc(-c2noc(Cc3nc(-c4ccc5c(c4)OCO5)cs3)n2)cc1 | no |
| CCC(CC)N1CCC(F)(c2nc(-c3ccccc3)no2)CC1 | yes |
| O=C([C@@H]1C[C@H](F)CN1S(=O)(=O)c1cc(F)cc(F)c1)N1CCc2ccccc2C1 | no |
| COc1cc(Nc2c(C(=O)N3CCCC(C)C3)cnc3nc(C)ccc23)cc(OC)c1 (stereo unspecified) | yes |
| CCCC(=O)N1CCc2cn(C)c3cccc(c23)C1 | no |
| CC(C)c1ccc(OCC(=O)Nc2nnc(C3CC(=O)N(c4ccc(F)cc4)C3)o2)cc1 (stereo unspecified) | no |
| O=C(CN1CC=C(c2cnn(-c3ccccc3)c2)CC1)N1CCN(c2ccccc2F)CC1 | yes |
| Cn1nc(-c2nc(C3CC3)no2)c2c1CCN(S(=O)(=O)c1cccs1)C2 | no |
| O=C(Cn1cnc2c(sc3nc(-c4ccccc4)ccc32)c1=O)Nc1ccccc1 | no |
| COc1ccc(-c2nnc(Cc3nc(-c4ccc(C)cc4)no3)o2)cc1OC | yes |
| COCCN1C(=O)c2ccccc2C(C(=O)NCCCN2CCCCC2C)C1c1cccs1 (stereo unspecified) | yes |
| COc1cccc(CNC(=O)C2(C)CCCN(C(=O)Nc3ccc(C)c(Cl)c3)C2)c1 (stereo unspecified) | no |
| COc1ccc(OC)c(NC(=O)CN2C(=O)CC(c3ccccc3)=Nc3ccccc32)c1 | no |
| Cc1ccc(CN(C(=O)COc2cc(C)c(Cl)c(C)c2)C2CCS(=O)(=O)C2)o1 (stereo unspecified) | no |
| CC1(C(=O)NCc2ccccc2)CCN(S(=O)(=O)c2ccccc2C(F)(F)F)CC1 | no |
| COc1ccc(Cl)cc1NC(=O)N1CCN(CCn2cnc3cccnc32)CC1 | yes |
| Fc1cc(F)cc(-c2nnc(Cc3nc(-c4ccc(Cl)cc4)no3)o2)c1 | no |
| CN(C)CCn1nnc2cc(-c3noc(-c4ccc(C#N)cc4)n3)ccc21 | yes |
| CCC(=O)N1CCc2c(-c3ccc(OC)cc3)cccc2[C@H]1C | no |

###

Experiment: gradient 5% acetonitrile 3 min, to 50% in 2 min, to 85% in 15 min, held 3 min, 100 µL/min
Conditions: column: Zorbax Extend-C18 2.1 x 50 mm; eluents: water / acetonitrile, 0.1% formic acid
The reader will find reported RP-LC retention time values listed item by item below.

| query smiles | RP-LC retention time (s) |
| --- | --- |
| O=C(c1ccc(Cl)cc1Cl)N1CC(c2nc(C3CC3)no2)C1 | 818 |
| CCOC(=O)c1ccc(NC(=O)C2CCN(S(=O)(=O)c3cn(C(C)C)cn3)CC2)cc1 | 789 |
| CCOc1ccc(NC(=O)c2oc3ccc(Br)cc3c2C)c2cccnc12 | 815 |
| CCOc1cc(C(=O)Nc2cc(-c3cn4cccnc4n3)ccc2C)cc(OCC)c1OCC | 780 |
